- Tested on: rodent lifetime carcinogenesis bioassay, tumor incidence TD50
- assay_summary: carcinogenic potency in animals, long-term in vivo studies, CPDB compilation (AID 1745844)
- reported_conditions: rat; strain Fischer 344; males; in feed; site: mammary gland; lesion: adenoma + fibroadenoma; dosed 104 weeks; study length 105 weeks
endpoint_name: TD50

>>> print(df.to_string())
        cpd_smiles  measured_result
0  OCC(CO)(CBr)CBr    262 mg/kg/day

###

- Test system: rodent lifetime carcinogenesis bioassay, tumor incidence TD50
- assay_summary: carcinogenic potency in animals, long-term in vivo studies, CPDB compilation (AID 1745844)
- reported_conditions: rat; strain Wistar; males; inhaled; site: lung; lesion: alveolar/bronchiolar adenoma; dosed 60 weeks; study length 134 weeks
endpoint_name: TD50 (mg/kg/day)

                 cpd_smiles  measured_result
0  O=S(=O)([O-])[O-].[Cd+2]            0.219

###

- Tested on: rodent lifetime carcinogenesis bioassay, tumor incidence TD50
- assay_summary: carcinogenic potency in animals, long-term in vivo studies, CPDB compilation (AID 1745844)
- reported_conditions: rat; strain Fischer 344; females; in drinking water; site: esophagus; lesion: several types; types named in the paper; dosed 30 weeks; study length 75 weeks
endpoint_name: TD50

In [3]: df
Out[3]:
                             compound                                    system  endpoint_name  measured_result
0  CC(O)CN(C)N=O (stereo unspecified)  rodent lifetime carcinogenesis bioassay, tumor incidence TD50           TD50  0.105 mg/kg/day

###

- Tested on: rodent lifetime carcinogenesis bioassay, tumor incidence TD50
- assay_summary: carcinogenic potency in animals, long-term in vivo studies, CPDB compilation (AID 1745844)
- reported_conditions: mouse; strain B6C3F1; males; by gavage; site: all sites; lesion: hemangiosarcoma; dosed 64 weeks; study length 81 weeks
endpoint_name: TD50 (mg/kg/day)

>>> df
                                 cpd_smiles  unit_label  measured_result
0  CC(C)CCC[C@@H](C)[C@H]1CC[C@H]2[C@@H]3CC=C4C[C@@H](OC(=O)Cc5ccc(N(CCCl)CCCl)cc5)CC[C@]4(C)[C@H]3CC[C@]12C   mg/kg/day             6.15

###

- Test system: rodent lifetime carcinogenesis bioassay, tumor incidence TD50
- assay_summary: carcinogenic potency in animals, long-term in vivo studies, CPDB compilation (AID 1745844)
- reported_conditions: mouse; strain B6C3F1; males; inhaled; site: all sites; lesion: histiocytic sarcoma + malignant lymphoma, mixed type + malignant lymphoma, lymphocytic type + malignant lymphoma; dosed 40 weeks; study length 104 weeks
endpoint_name: TD50

>>> df
   cpd_smiles                                    system  measured_result
0      C=CC=C  rodent lifetime carcinogenesis bioassay, tumor incidence TD50   57.1 mg/kg/day

###

- Tested on: rodent lifetime carcinogenesis bioassay, tumor incidence TD50
- assay_summary: carcinogenic potency in animals, long-term in vivo studies, CPDB compilation (AID 1745844)
- reported_conditions: mouse; strain B6C3F1; females; inhaled; site: liver; lesion: hepatocellular adenoma; dosed 26 weeks; study length 104 weeks
endpoint_name: TD50 (mg/kg/day)

   cpd_smiles  measured_result
0       ClCCl             2570

###

- System: rodent lifetime carcinogenesis bioassay, tumor incidence TD50
- assay_summary: carcinogenic potency in animals, long-term in vivo studies, CPDB compilation (AID 1745844)
- reported_conditions: rat; strain Fischer 344; females; in feed; site: any site (literature study); lesion: several types; types named in the paper; dosed 92 weeks; study length 104 weeks
endpoint_name: TD50 (mg/kg/day)

>>> print(df.to_string())
                                 cpd_smiles                                    system  endpoint_name  unit_label  measured_result
0  C/C=C(/C)C(=O)O[C@H]1CCN2CC=C(COC(=O)[C@@](O)([C@H](C)OC)C(C)(C)O)[C@H]12  rodent lifetime carcinogenesis bioassay, tumor incidence TD50           TD50   mg/kg/day            0.102

###

- Test system: rodent lifetime carcinogenesis bioassay, tumor incidence TD50
- assay_summary: carcinogenic potency in animals, long-term in vivo studies, CPDB compilation (AID 1745844)
- reported_conditions: monkey; strain Rhesus [Macaca mulatta]; both sexes; in feed; site: larynx; lesion: squamous-cell carcinoma; dosed 928 weeks; study length 1139 weeks
endpoint_name: TD50

>>> print(df.to_string())
      cpd_smiles  measured_result
0  CN(N=O)C(N)=O   95.6 mg/kg/day

###

- Test system: rodent lifetime carcinogenesis bioassay, tumor incidence TD50
- assay_summary: carcinogenic potency in animals, long-term in vivo studies, CPDB compilation (AID 1745844)
- reported_conditions: rat; strain Charles River CD (Sprague-Dawley); males; in feed; site: mammary gland; lesion: fibroadenoma; dosed 104 weeks; study length 104 weeks
The source made the active and inactive calls. How the calls were made is not given here.
endpoint_name: TD50

>>> df
                                cpd_smiles  endpoint_name           measured_result
0  O=C1CN(N=Cc2ccc([N+](=O)[O-])o2)C(=O)N1           TD50  878 mg/kg/day (inactive)

###

- Tested on: rodent lifetime carcinogenesis bioassay, tumor incidence TD50
- assay_summary: carcinogenic potency in animals, long-term in vivo studies, CPDB compilation (AID 1745844)
- reported_conditions: rat; strain Fischer 344; males; in feed; site: all sites; lesion: leukemia; dosed 103 weeks; study length 105 weeks
Activity calls are given as the source filed them. No rule for the calls is given here.
endpoint_name: TD50

                                 cpd_smiles  endpoint_name           measured_result
0  CC(=O)c1ccc(S(=O)(=O)NC(=O)NC2CCCCC2)cc1           TD50  527 mg/kg/day (inactive)

###

- Test system: rodent lifetime carcinogenesis bioassay, tumor incidence TD50
- assay_summary: carcinogenic potency in animals, long-term in vivo studies, CPDB compilation (AID 1745844)
- reported_conditions: hamster; strain Syrian Golden; females; in drinking water; site: liver; lesion: liver-cell carcinoma; dosed 102 weeks; study length 102 weeks
endpoint_name: TD50 (mg/kg/day)

>>> print(df.to_string())
   cpd_smiles                                    system  measured_result
0    CN(N)C=O  rodent lifetime carcinogenesis bioassay, tumor incidence TD50             25.1

###

- Test system: rodent lifetime carcinogenesis bioassay, tumor incidence TD50
- assay_summary: carcinogenic potency in animals, long-term in vivo studies, CPDB compilation (AID 1745844)
- reported_conditions: hamster; strain Syrian Golden; males; by gavage; site: lung; lesion: bronchiolar adenoma; dosed 84 weeks; study length 84 weeks
Activity calls are given as the source filed them. How the calls were made is not given here.
endpoint_name: TD50

                                 cpd_smiles                                    system            measured_result
0  CC1=CC(=C(c2ccc(N)cc2)c2ccc(N)cc2)C=CC1=N  rodent lifetime carcinogenesis bioassay, tumor incidence TD50  2020 mg/kg/day (inactive)

###

- Tested on: rodent lifetime carcinogenesis bioassay, tumor incidence TD50
- assay_summary: carcinogenic potency in animals, long-term in vivo studies, CPDB compilation (AID 1745844)
- reported_conditions: mouse; strain CDF1; males; in feed; site: forestomach; lesion: squamous-cell carcinoma; dosed 91 weeks; study length 91 weeks
endpoint_name: TD50

                   cpd_smiles  measured_result
0  Cc1cc2ncccc2c2nc(N)n(C)c12   22.4 mg/kg/day

###

- System: rodent lifetime carcinogenesis bioassay, tumor incidence TD50
- assay_summary: carcinogenic potency in animals, long-term in vivo studies, CPDB compilation (AID 1745844)
- reported_conditions: rat; strain Charles River CD (Sprague-Dawley); females; inhaled; site: nasal cavity; lesion: adenoma; dosed 104 weeks; study length 104 weeks
endpoint_name: TD50

>>> print(df.to_string())
   cpd_smiles  measured_result
0   ClCC=CCCl  0.695 mg/kg/day

###

- System: rodent lifetime carcinogenesis bioassay, tumor incidence TD50
- assay_summary: carcinogenic potency in animals, long-term in vivo studies, CPDB compilation (AID 1745844)
- reported_conditions: mouse; strain B6C3F1; females; in feed; site: kidney; lesion: tubular-cell adenoma; dosed 96 weeks; study length 96 weeks
endpoint_name: TD50

>>> print(df.to_string())
                cpd_smiles  measured_result
0  O=C(O)C=Cc1ccc(O)c(O)c1   4700 mg/kg/day

###

- Test system: rodent lifetime carcinogenesis bioassay, tumor incidence TD50
- assay_summary: carcinogenic potency in animals, long-term in vivo studies, CPDB compilation (AID 1745844)
- reported_conditions: rat; strain Fischer 344; females; in drinking water; site: liver; lesion: hemangiosarcoma; dosed 50 weeks; study length 75 weeks
endpoint_name: TD50

In [3]: df
Out[3]:
             cpd_smiles  measured_result
0  CC(=O)CN(CC(C)=O)N=O  0.892 mg/kg/day

Source: PubChem BioAssay AID1745844
